// data source = patent US10167284B2

target: human muscarinic M2 receptor (Homo sapiens); assay: Alphascreen Surefire phospho-ERK1/2 functional assay, M2; conditions: CHO, read-out: M2 % Emax cf. ACh, CHO cells stably expressing human M2; Emax relative to ACh
Sequence (P08172 whole entry): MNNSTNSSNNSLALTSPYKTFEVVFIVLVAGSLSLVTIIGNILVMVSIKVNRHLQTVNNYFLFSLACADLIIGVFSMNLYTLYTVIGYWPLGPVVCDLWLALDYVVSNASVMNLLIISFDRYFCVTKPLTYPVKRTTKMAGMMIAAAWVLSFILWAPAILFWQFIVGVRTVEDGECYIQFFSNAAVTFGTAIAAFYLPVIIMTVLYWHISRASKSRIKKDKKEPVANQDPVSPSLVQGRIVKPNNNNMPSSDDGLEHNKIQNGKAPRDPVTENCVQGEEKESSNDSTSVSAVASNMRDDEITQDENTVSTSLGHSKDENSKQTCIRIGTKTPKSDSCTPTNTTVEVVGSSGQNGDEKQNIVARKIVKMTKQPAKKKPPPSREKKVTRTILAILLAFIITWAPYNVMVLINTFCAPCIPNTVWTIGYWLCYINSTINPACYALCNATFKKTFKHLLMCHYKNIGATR
Use Fulfilled when the recorded Emax is no lower than 7%; use Not fulfilled when it is lower.

molecule | cat
CCOC(=O)N1CCC2(CC(N3CCC4(CC3)OC(=O)N(C)C4CC)C2)C1 (single isomer, unassigned) [4-20 Isomer 3] | Fulfilled
CCOC(=O)N1CCC2(CC(N3CCC4(CC3)OC(=O)N(CC(C)C)C4CC)C2)C1 (single isomer, unassigned) [4-24 Isomer 2 (racemic)] | Fulfilled
COC(=O)N1CCC2(CC(N3CCC4(CC3)CNC(=O)O4)C2)C1 (single isomer, unassigned) [4-1 Isomer 2] | Fulfilled
CCOC(=O)N1CC2(CC(N3CCC4(CC3)OC(=O)NC4CC)C2)C1 (single isomer, unassigned) [2-1 Isomer 2] | Fulfilled
COC(=O)N1CCC2(CC(N3CCC4(CC3)CC(=O)NC4Cc3ccccc3)C2)C1 (single isomer, unassigned) [3-7 Isomer 2] | Fulfilled
CCOC(=O)N1CCC2(CC(N3CCC4(CC3)OC(=O)N(CC(F)(F)F)C4(C)C)C2)C1 (single isomer, unassigned) [4-43 Isomer 2] | Not fulfilled
CCCN1NC(=O)CC12CCN(C1CC3(CCN(C(=O)OCC)C3)C1)CC2 (single isomer, unassigned) [6-4 Isomer 2] | Fulfilled
CCOC(=O)N1CCC2(CC(N3CCC4(CC3)CC(=O)NN4CC)C2)C1 (single isomer, unassigned) [6-2 Isomer 2] | Not fulfilled
CCOC(=O)N1CCC2(CC(N3CCC4(CC3)CNC(=O)O4)C2)C1 (single isomer, unassigned) [4-3 Isomer 2] | Not fulfilled
CCOC(=O)N1CCC2(CC(N3CCC4(CC3)OC(=O)NC4CC(F)(F)F)C2)C1 (single isomer, unassigned) [4-17 Isomer 1 (racemic)] | Fulfilled
CCOC(=O)N1CCC2(CC(N3CCC4(CC3)CNC(=O)N4)C2)C1 (single isomer, unassigned) [5-2 Isomer 2] | Fulfilled
CCOC(=O)N1CC2(CCC(N3CCC4(CC3)CNC(=O)C4)C2)C1 (racemic) [7-1 racemic] | Not fulfilled
